Consider the following variants; for each one, report its protein stability index.
B1: PRPH (parent)
chain: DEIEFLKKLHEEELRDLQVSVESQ

Variants of: B1
Test: protein stability index of a GFP-peptide fusion (GPS, HEK-293T) (PSI 1-6); higher = more stable;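 further: lentivirally expressed fusions sorted by FACS into six bins by GFP to DsRed ratio, PSI derived from sequencing read proportions per bin multiplied by bin number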
Conditions: c terminus: a fixed tail appended

Record summary for H10R : reported protein stability index = 4.87

Value of measured protein stability index for the entry S20P : 4.96

# protein stability index of I3G = 5.05

Entry under test: L17E . Its protein stability index was 4.98

Data point: L17D ; protein stability index = 5.25

The value of protein stability index measured for the variant E13D turned out to be 4.97

What the record says about V19D : protein stability index is 5.58

For this variant ( S23Y ), measured protein stability index is 4.71

Notebook: E2V , protein stability index read as 2

// protein stability index value for E11C : 4.09

Short answer for E2W : protein stability index was 1.69

Values were extracted from the supplement of paper PMC10567573.
